# melting point per entry

O=C(Nc1ccc(-c2ccc3c(NC(=O)c4ccccc4)n[nH]c3c2F)cc1)Nc1cc(C(F)(F)F)ccc1F = 206 to 207 °C
CCOC(=O)c1ncc2[nH]c3cccc(Oc4ccc([N+](=O)[O-])cc4)c3c2c1COC = 231 to 232 °C
CCN(CC)c1ccc2c(c1)OC(=O)N(c1ccccc1)C2(c1ccc(N(C)C)cc1)c1ccc(N(C)C)cc1 = 206 to 207 °C
O=C(NCCCO)c1ccc(O)cc1 = 118 to 120 °C
C=C(C)n1c(=O)n(CCCCl)c2ccccc21 = 115 °C
CCOc1ccc(NN=C2CCC(C)n3c2ncc(C(=O)O)c3=O)cc1 (centres undefined) = 218 to 219 °C
Cn1cccc1Cc1cccc(NC(N)=O)c1 = 84 to 86 °C
O=Cc1ccc(-c2ccccc2Cl)cc1 = 124 to 125 °C

// next item, melting point requested
melting point for CC(C)(C)ONc1ccccc1 ?
67 to 69 °C

* * *

parameter measured: melting point

COC(=O)c1ccc(NC(C)=O)c([N+](=O)[O-])c1 = 123 to 124 °C
CCOC(=O)CC(=O)c1ccc(OCc2ccccc2)cc1C = 59 to 60 °C
CCCN(C(=O)Oc1ccccc1)C1Cc2ccc(-c3ccc(=O)[nH]n3)cc2C1 (centres undefined) = 140 to 141 °C

melting point for O=C1Cc2c(Cl)cccc2Sc2cc(F)ccc21 ?
109 to 111 °C

melting point for COC(=O)c1ccc(OC)c(Nc2cc(Cl)cc(Cl)c2)c1 ?
134 to 135 °C

melting point for O=C1CCc2cc(OCc3ccccc3)c(O)cc21 ?
140 to 142 °C

melting point for COC(=O)CCC(OC(=O)Oc1ccccc1)C(=O)c1ccc(Cl)cc1 (centres undefined) ?
97 to 98 °C

melting point for O=c1cnc(-c2c(F)cccc2F)n[nH]1 ?
219 to 226 °C

melting point for O=C(O)CCC/C=C/c1ccc2ccccc2n1 ?
142 to 144 °C

melting point for CC(=O)Nc1nc(-c2ccc([N+](=O)[O-])cc2)c(C)[nH]1 ?
230 to 235 °C

melting point for COC(=O)c1ccnc2ccc(C(=O)c3ccc(Cl)cc3)cc12 ?
126 °C

melting point for C=C(c1ccc(C(=O)O)cc1)C(O)(Cn1cncn1)c1ccc(F)cc1F (centres undefined) ?
189 to 190 °C

melting point for O=Cc1c(O)cc(O)cc1CCl ?
164 to 166 °C

melting point for COC(=O)NC=Cc1ccc(OCC(O)CNC(C)CC(N)=O)cc1 (centres undefined) ?
109 to 111 °C

* * *

# melting point per entry

melting point for Cc1cccc(C=Cc2ccccc2C#N)n1 ?
91 to 92 °C

melting point for CSC1=C(c2ccccc2)C(=O)N(Nc2ccccc2)C1=O ?
86 to 88 °C

melting point for CC(=O)NCC1CN(c2ccc(N3CCN(C(=O)CCC(=O)c4ccc(CN5CCOCC5)cc4)CC3)c(F)c2)C(=O)O1 (stereo unspecified) ?
178 to 179 °C

melting point for Nc1ncnc2c1ncn2OCC(O)COCP(=O)(O)O (stereo unspecified) ?
218 to 221 °C

melting point for CCOC(=O)c1c(N2CCN(CCO)CC2)c2cc(Cl)ccc2[nH]c1=O ?
130 to 134 °C

* * *

parameter measured: melting point

// below: answered compounds
COc1ccc(N2CCN(c3c(C)c(C)c4c(c3C)C(c3ccc(-c5ccccc5)cc3)C(C)(C)O4)CC2)cc1 (stereo not drawn) = 147 to 148 °C
c1ccc2c(c1)CCc1ccccc1C2CNc1ccncc1 = 145 to 146 °C

// next item, melting point requested
melting point for O=C1C2=C(CCCC2)C(=O)N1c1cc(OC2CCCCC2)c(Cl)cc1F ?
102 to 103 °C

* * *

# melting point per entry

// below: answered compounds
CCc1ccc(Nc2c(C(=O)NOCCO)ccc(F)c2F)c(Cl)c1 = 142 to 145 °C
O=C1NC(=O)c2c1c(-c1ccc(CO)cc1)cc1[nH]c3ccc(O)cc3c21 = 266 to 271 °C

melting point for CCn1cc(-c2ccc3nnn(Cc4ccc5ncccc5c4)c3n2)cn1 ?
132 to 134 °C

* * *

# melting point per entry

NC(=O)c1cnc(Oc2ccc(C3OCCO3)cc2F)cn1 = 169 to 172 °C
COc1ccc(CCNCC(O)COc2cccc3nn(Cc4ccccc4)cc23)cc1OC (centres undefined) = 101 to 102 °C
COC(=O)C(=O)Nc1ccc2c3c(n(CCCNC(=O)OC(C)(C)C)c(=O)c2c1)-c1ccccc1C3=O = 157 to 159 °C
C[C@@H]1CN(c2ccc(S(=O)(=O)c3ccccc3)c3ccccc23)C[C@H](C)N1 = 168 to 169 °C
O=[N+]([O-])c1ccc(Sc2ncccn2)cc1 = 103 to 104 °C

melting point for CNCc1ccc(S(C)(=O)=O)c(S(=O)(=O)NC(C)(C)C)c1 ?
76 to 78 °C

melting point for O=C(O)CNC(=O)c1nc(Cl)c2cc(OCc3ccccc3)ccc2c1O ?
194 to 196 °C

melting point for Cn1c(=O)c2ccccc2n(Cc2ccc(F)cc2)c1=N ?
135 to 137 °C

melting point for O=C(O)c1ccc(Cl)cc1NCc1cccnc1 ?
235 to 236 °C

melting point for CCC(CC)n1nc(-c2ccc(O)cc2O)c2cccc(C(F)(F)F)c21 ?
121 to 122 °C

melting point for NS(=O)(=O)c1c(Cl)cccc1-c1ccccc1 ?
185 to 187 °C

melting point for Cc1ccc(C(=O)Nc2ccc(-n3nc(C(F)(F)F)cc3C(F)(F)F)cc2)s1 ?
200 to 202 °C

melting point for CCOC(=O)CCn1ccn([C@H]2CCc3c(F)cc(F)cc3C2)c1=S ?
105 to 107 °C

melting point for CC(C)=C1CCC2(C1)C(=O)C=C(OC(C)C)CC2C (centres undefined) ?
77 to 77.5 °C

melting point for COc1cc(C=NN(C)C)c([N+](=O)[O-])cc1OC ?
143 to 145 °C

melting point for CCCCNC(=O)Nc1ccc(SCC)cc1C(=O)NCC1CCN(C(c2ccccc2)c2ccccc2)CC1 ?
159 to 160 °C

melting point for FC(F)(F)c1csc(Nc2cc3ccccc3cn2)n1 ?
200 to 203 °C

melting point for O=[N+]([O-])c1cnn2c(-c3cccnc3)ccnc12 ?
302 to 303 °C

melting point for CC(C)Nc1nc2cc(Cl)c(Cl)cc2n1[C@H]1C[C@@H](CO)[C@H](O)[C@@H]1O ?
137 to 138 °C

melting point for CCOC(=O)C(Cl)=Cc1ccc([N+](=O)[O-])cc1 ?
108 to 110 °C

melting point for CC1(C)OC(c2ccc(S(C)(=O)=O)cc2F)=C(c2ccccc2)C1=O ?
175 to 176 °C

melting point for NS(=O)(=O)c1ccc(NC(=O)Nc2ccccc2-c2ccccc2)cc1 ?
229 to 231 °C

* * *

# melting point per entry

// below: answered compounds
COc1ccccc1CN1Cc2cc(OC)c(OCc3ccccc3)cc2C(OC)C1 (stereo unspecified) = 101 to 102 °C
CN1Cc2ccccc2C(=O)c2c1nc1ccc(Br)cc1c2Cl = 153 to 155 °C
Cn1c(-c2ccccc2)cc(O)c(C(=O)c2ccccc2)c1=O = 149 to 151 °C
COC(=O)COc1ccc(CCN2CCN(c3ccncc3)CC2)cc1 = 104 to 105 °C
C#Cc1ccc2c(c1)C(c1ccccn1)=NCc1c(C(=O)N(C)C)ncn1-2 = 193 to 194 °C

// next item, melting point requested
melting point for O=c1[nH]c2ccccc2c2c(CCO)n(-c3ccccc3)nc12 ?
310 to 312 °C

* * *

parameter measured: melting point

// below: answered molecules
CCOC(=O)CNC(=O)CCc1cc(Cl)ccc1C(=O)CCCNC(=O)CCCNC(C)=O = 94 to 96 °C
CCOCn1c(C(F)(F)F)c(C#N)c2ccc(Cl)c(Cl)c21 = 122 to 127 °C
COc1ccc2nc(Oc3c(Cl)cc(N)cc3Cl)sc2c1 = 158 to 160 °C

// next item, melting point requested
melting point for CCn1c2c(c3ccccc31)S(=O)(=O)N(C)C(C(=O)Nc1ccccn1)=C2O ?
232 °C

* * *

parameter measured: melting point

// below: answered compounds
CC(C)COc1ccccc1-c1ccc(C(N)=O)c(=O)[nH]1 = 180 °C
CCOC(=O)C(=O)c1csc(NC(=O)Nc2c(C)cccc2C)n1 = 172 to 174 °C
COc1c(Cl)ccc2c1C(O)(c1ccccc1Cl)C(=O)N2 (centres undefined) = 228 to 229 °C

// next item, melting point requested
melting point for c1cc(-c2n[nH]c3c2Cc2ccc(CN4CCNCC4)cc2-3)cs1 ?
125 to 130 °C

* * *

# melting point per entry

CN1C(c2ccc(NS(C)(=O)=O)cc2)NCc2ccccc2C1c1ccccc1 (stereo unspecified) = 124 to 126 °C
CCOC(=O)c1sc(N2CCN(CC3CC3(F)F)C2=O)nc1C (stereo unspecified) = 146 to 148 °C
Cc1oc2c(NC(=O)c3c(Cl)cccc3Cl)cccc2c1COC(=O)CCCC(=O)NC(P(=O)(O)O)P(=O)(O)O = 190 to 195 °C

melting point for COc1cc(CN/C=C2\C(=O)NC(=O)c3ccc(Br)cc32)ccc1O ?
260 to 261 °C

melting point for CCOc1cccc(-c2ccc3c(c2)C=C(C(=O)Nc2ccc(CN(C)C4CCOCC4)cc2)CCS3(=O)=O)c1 ?
192 to 195 °C

melting point for CCc1nc2cc(CO)c(Cl)cc2n1-c1ccc(CCOC(=O)NS(=O)(=O)c2ccc(C)cc2)cc1 ?
173 °C
